Known CL/F of a selection of molecules
# test.name: Blood clearance in rat at 3 mg/kg, po
# Format: ADME, organism-based
# Design: dose 3 mg/kg, route oral
# setup.conditions: whole blood
Quick reminder: number only, in mL/min/kg, skip the unit.

Below are worked cases with known answers.
> print(dat)
                            chemical.string  assay.metric          u  test.value
1  Cc1ccc2c(OCCN3CCC(Cc4cc5c(cc4F)OCC(=O)N5)CC3)cccc2n1          CL/F  mL/min/kg          36
2  Cc1ccc2c(OCCN3CCC(Cc4cc5c(cc4F)OCC(=O)N5)CC3)cc(F)cc2n1          CL/F  mL/min/kg          19
3  Cc1ccc2c(OCCN3CCC(Cc4ccc5c(c4F)NC(=O)CO5)CC3)cccc2n1          CL/F  mL/min/kg          41

Lab note: Cc1ccc2c(OCCN3CCC(Cc4ccc5c(c4)NC(=O)CO5)CC3)cccc2n1 gave CL/F of 50

Lab note: Cc1ccc2c(OCCN3CCC(Cc4ccc5c(c4F)NC(=O)CO5)CC3)cc(Cl)cc2n1 gave CL/F of 28

Lab note: Cc1ccc2c(OCCN3CCC(Cc4cc5c(cc4F)OCC(=O)N5)CC3)cc(Cl)cc2n1 gave CL/F of 18

Lab note: Cc1ccc2c(OCCN3CCC(Cc4ccc5c(c4F)NC(=O)CO5)CC3)cc(F)cc2n1 gave CL/F of 27
